Where these numbers come from: the RNAGym collection of RNA variant scans (doi:10.1093/molbev/msab373)

B1: Azoarcus group I ribozyme (parent)
chain: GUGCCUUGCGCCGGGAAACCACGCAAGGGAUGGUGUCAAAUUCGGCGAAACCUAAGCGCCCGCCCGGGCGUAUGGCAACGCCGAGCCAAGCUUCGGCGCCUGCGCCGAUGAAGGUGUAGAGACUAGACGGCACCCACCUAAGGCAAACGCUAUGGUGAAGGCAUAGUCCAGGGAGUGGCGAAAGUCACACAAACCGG

variants of: B1; assay: reverse-splicing fitness (ratio to wild type); higher = more active; in vitro selection; Mg2+ level not given
Cut-off 0.005 on reverse-splicing fitness, inclusive. At or above means 1 (yes); below means 0 (no).

INSERT INTO results (mutationspec, assignedcategory) VALUES
  ('A111C A120C A145C C150G C169U', '1 (yes)'),
  ('A111C A120C A145G C150G U176G', '1 (yes)'),
  ('C82G A145C C169A U176G', '0 (no)'),
  ('C82U A145U C169A U176G', '0 (no)'),
  ('C82A A111G A145C C150G U176G', '0 (no)');

Query :: Textbook exercise: given the entry A111G A145C C150A C169A U176G , state whether its reverse-splicing fitness is greater than or equal to 0.005.
Result :: 1 (yes)

Query :: Textbook exercise: given the entry C82U A111U A120G A145U C150A C169U U176G , state whether its reverse-splicing fitness is greater than or equal to 0.005.
Result :: 0 (no)

Query :: Textbook exercise: given the entry A120C A145U C150U C169A U176G , state whether its reverse-splicing fitness is greater than or equal to 0.005.
Result :: 0 (no)

Query :: Textbook exercise: given the entry C82A A111C A120C A145G C150A C169U U176C , state whether its reverse-splicing fitness is greater than or equal to 0.005.
Result :: 1 (yes)

Query :: Textbook exercise: given the entry C82G A111U A120C A145C C150G C169G , state whether its reverse-splicing fitness is greater than or equal to 0.005.
Result :: 1 (yes)
